Entries and their normalized growth
# procedureSummary: chemical genetic growth profiling, strain panel (AID 1159580);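 note: tested at 20 µM; growth read once vehicle control cultures reached saturation at 30 °C; 1 = growth at the plate median or of vehicle wells; lower values mean less growth of the strain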
# conditionDetails: S. cerevisiae deletion strains, growth OD, locus YJL154C, strain vps35, active compounds read low
About 2,000 (36%) of roughly 5,500 compounds were called active. Not shown: some 18% with an inconclusive outcome. This is one part of the list.

>  <compound>
Cc1cc(OC(=O)N2CCCCC2)c(C(C)C)cc1[N+](C)(C)C

>  <normalized growth>
1.01

$$$$
>  <compound>
C/C=C(/C(=C/C)c1ccc(O)cc1)c1ccc(O)cc1

>  <normalized growth>
0.969

$$$$
>  <compound>
O=[N+]([O-])O[C@H]1CO[C@H]2[C@@H]1OC[C@H]2O[N+](=O)[O-]

>  <normalized growth>
0.998

$$$$
>  <compound>
CC(C)(C)CC(C)(C)c1ccc(OCCOCC[N+](C)(C)Cc2ccccc2)cc1

>  <normalized growth>
0.0655

$$$$
>  <compound>
CCC1(c2ccccc2)C(=O)NCNC1=O

>  <normalized growth>
0.976

$$$$
>  <compound>
NC(N)=NOCC[C@H](N)C(=O)O

>  <normalized growth>
1.01

$$$$
>  <compound>
COC1C(O)C(O)C(O)[C@@H](O)C1O (some centres undefined)

>  <normalized growth>
0.964

$$$$
>  <compound>
OC(CCN1CCCCC1)(c1ccccc1)c1ccccc1

>  <normalized growth>
0.984

$$$$
>  <compound>
CC(=O)OC1CC23CC24CCC(OC2OCC(O)C(O)C2O)C(C)(C)C4CCC3C2(C)CC3OC4(CC(C)C3C12C)OC(O)C1(C)OC41 (centres undefined)

>  <normalized growth>
1.01

$$$$
>  <compound>
C[C@@H](N)CO

>  <normalized growth>
0.996

$$$$
>  <compound>
CCSC(=N)N

>  <normalized growth>
1.01

$$$$
>  <compound>
CC1(C)C2CC[C@]3(C)C(C(=O)C=C4[C@@H]5C[C@@](C)(C(=O)O)CC[C@]5(C)CC[C@]43C)[C@@]2(C)CC[C@@H]1O (some centres undefined)

>  <normalized growth>
1.01

$$$$
>  <compound>
CCCCOc1ccc(C(=O)CCN2CCCCC2)cc1

>  <normalized growth>
0.968

$$$$
>  <compound>
COc1cc2c(cc1OC)C(=O)C(CC1CCN(Cc3ccccc3)CC1)C2 (centres undefined)

>  <normalized growth>
1.01

$$$$
>  <compound>
O=C(O)c1ccccc1OP(=O)(O)O

>  <normalized growth>
0.996

$$$$
>  <compound>
COc1ccc(C(=O)c2ccccc2O)c(O)c1

>  <normalized growth>
0.884

$$$$
>  <compound>
C[N+](C)(C)CCOP(=O)([O-])OP(=O)(O)OC[C@H]1OC(n2ccc(N)nc2=O)[C@H](O)[C@@H]1O (some centres undefined)

>  <normalized growth>
0.981

$$$$
>  <compound>
CC(C)CC1C(=O)N2CCC[C@H]2C2(O)O[C@](NC(=O)C3C=C4c5cccc6[nH]c(Br)c(c56)C[C@H]4N(C)C3)(C(C)C)C(=O)N12 (some centres undefined)

>  <normalized growth>
0.979

$$$$
>  <compound>
CC(=O)[C@H]1CCC2C3C[C@H](C)C4=CC(=O)CC[C@]4(C)C3[C@@H](O)C[C@@]21C (some centres undefined)

>  <normalized growth>
0.972

$$$$
>  <compound>
CC(C)(CO)C(O)C(=O)NCCCO (centres undefined)

>  <normalized growth>
1.01

$$$$
>  <compound>
O=c1ccc2cc(O)c(O)cc2o1

>  <normalized growth>
1.01

$$$$
>  <compound>
CNc1ccccc1C(=O)N1CCc2c([nH]c3ccccc23)C1=O

>  <normalized growth>
0.989

$$$$
>  <compound>
N#Cc1c(Cl)c(Cl)c(Cl)c(C#N)c1Cl

>  <normalized growth>
0.07

$$$$
>  <compound>
CN1CCCC(n2nc(Cc3ccc(Cl)cc3)c3ccccc3c2=O)CC1 (centres undefined)

>  <normalized growth>
0.992

$$$$
>  <compound>
COc1cc(O)c(C(=O)c2ccccc2)cc1O

>  <normalized growth>
1.02

$$$$
>  <compound>
OCCN(CCO)c1nc(N2CCCCC2)c2nc(N(CCO)CCO)nc(N3CCCCC3)c2n1

>  <normalized growth>
0.992

$$$$
>  <compound>
CC1(C)C2CC[C@]3(C)C(C(=O)C=C4[C@H]5C[C@@](C)(C(=O)O)CC[C@]5(C)CC[C@]43C)[C@@]2(C)CC[C@@H]1O (some centres undefined)

>  <normalized growth>
1.02

$$$$
>  <compound>
NC(N)=Nc1nc(CSCCC(N)=NS(N)(=O)=O)cs1

>  <normalized growth>
0.983

$$$$
>  <compound>
CCCCCC(=O)O[C@]1(C(C)=O)CCC2C3CCC4=CC(=O)CC[C@]4(C)C3CC[C@@]21C (some centres undefined)

>  <normalized growth>
1.02

$$$$
>  <compound>
Cc1cc(C(C)(C)CC(C)(C)C)ccc1OCCOCC[N+](C)(C)Cc1ccccc1

>  <normalized growth>
0.0594

$$$$
>  <compound>
COc1ccc(C[C@H]2NC[C@H](O)[C@H]2OC(C)=O)cc1

>  <normalized growth>
1.01

$$$$
>  <compound>
CC(=O)O[C@]1(C(C)=O)CCC2C3C=C(Cl)C4=CC(=O)CC[C@]4(C)C3CC[C@@]21C (some centres undefined)

>  <normalized growth>
1.01

$$$$
>  <compound>
CCOC(=O)c1ncn2c1CN(C)C(=O)c1cc(F)ccc1-2

>  <normalized growth>
1.02

$$$$
>  <compound>
COc1ccc2c(c1)OC[C@@H](Cc1ccc(OC)c(OC)c1)[C@@H]2O

>  <normalized growth>
1

$$$$
>  <compound>
CCCCCCCCCCCCC[N+](C)(C)Cc1ccccc1

>  <normalized growth>
0.0584

$$$$
>  <compound>
CC(C)=CCc1c(O)cc2oc(C)cc(=O)c2c1O

>  <normalized growth>
0.983

$$$$
>  <compound>
CC(C)(N=NC(C)(C)C(=N)N)C(=N)N

>  <normalized growth>
1.02

$$$$
>  <compound>
Cc1cc(=O)c2c(O)cc(O)c(C)c2o1

>  <normalized growth>
0.977

$$$$
>  <compound>
CN1CCc2cc3c(cc2C1O)OCO3 (centres undefined)

>  <normalized growth>
0.989

$$$$
>  <compound>
CC(=O)O[C@]1(C(C)=O)CCC2C3C[C@H](C)C4=CC(=O)CC[C@]4(C)C3CC[C@@]21C (some centres undefined)

>  <normalized growth>
0.964

$$$$
>  <compound>
COc1ccc(C(=O)c2ccccc2)c(O)c1

>  <normalized growth>
0.882

$$$$
>  <compound>
O=C(Cc1ccccc1)NO

>  <normalized growth>
0.989

$$$$
>  <compound>
CCc1nc(N)nc(N)c1-c1ccc(Cl)cc1

>  <normalized growth>
0.954

$$$$
>  <compound>
C[C@@H]1O[C@@H](O[C@H]2[C@@H](Oc3cc(O)c4c(c3)O[C@H](c3ccc(O)cc3)CC4=O)O[C@H](CO)[C@@H](O)[C@@H]2O)[C@H](O)[C@H](O)[C@H]1O

>  <normalized growth>
0.961

$$$$

====

Entries and their normalized growth
# procedureSummary: chemical genetic growth profiling, strain panel (AID 1159580);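 note: tested at 20 µM; growth read once vehicle control cultures reached saturation at 30 °C; 1 = growth at the plate median or of vehicle wells; lower values mean less growth of the strain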
# conditionDetails: S. cerevisiae deletion strains, growth OD, locus YER016W, strain bim1, active compounds read low
Hit rate of the full screen: of about 5,500 compounds, about 2,000 (36%) were called active. Not shown: some 18% with an inconclusive outcome. The list shows a part of the results.
measuredMetric: normalized growth

>  <testSmiles>
COc1ccc2cc1Oc1ccc(cc1)C[C@H]1c3c(cc4c(c3Oc3cc5c(cc3OC)CCN(C)[C@@H]5C2)OCO4)CCN1C

>  <measuredMetric>
normalized growth

>  <reportedResult>
1.06

$$$$
>  <testSmiles>
COc1ccc2cc1Oc1ccc(cc1)C[C@H]1c3cc(c(OC)cc3CCN1C)Oc1c(OC)c(OC)cc3c1[C@H](C2)N(C)CC3

>  <measuredMetric>
normalized growth

>  <reportedResult>
1

$$$$
>  <testSmiles>
CC[C@H]1OC(=O)C[C@@H](O)[C@H](C)[C@@H](O[C@@H]2O[C@H](C)[C@@H](O[C@H]3C[C@@](C)(O)[C@@H](O)[C@H](C)O3)[C@H](N(C)C)[C@H]2O)[C@@H](CC=O)C[C@@H](C)C(=O)/C=C/C(C)=C/[C@@H]1CO[C@@H]1O[C@H](C)[C@@H](O)[C@@H](OC)[C@H]1OC

>  <measuredMetric>
normalized growth

>  <reportedResult>
0.991

$$$$

====

# procedureSummary: chemical genetic growth profiling, strain panel (AID 1159580);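 note: tested at 20 µM; growth read once vehicle control cultures reached saturation at 30 °C; 1 = growth at the plate median or of vehicle wells; lower values mean less growth of the strain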
# conditionDetails: S. cerevisiae deletion strains, growth OD, locus YNL322C, strain KRE1 (second series), active compounds read low
Screen size: about 5,500 compounds; about 2,000 (36%) were called active. About 18% were inconclusive and are not listed. The list shows a part of the results.
Note to self: use Fulfilled only for normalized growth readings below 1; a reading exactly at 1 still gets Not fulfilled.

>  <testSmiles>
O=C(Cc1ccccc1)NO

>  <assignedLabel>
Fulfilled

$$$$
>  <testSmiles>
CC(C)(C)CC(C)(C)c1ccc(OCCOCC[N+](C)(C)Cc2ccccc2)cc1

>  <assignedLabel>
Fulfilled

$$$$
>  <testSmiles>
COc1ccc(-c2cc(=O)c3c(O)cc(OC)c(OC)c3o2)c(OC)c1

>  <assignedLabel>
Not fulfilled

$$$$
